# experimentalDetails: qHTS for Inhibitors of human tyrosyl-DNA phosphodiesterase 1 (TDP1): qHTS in cells in absence of CPT; further: nearly all actives have a fitted effect of over 55% in size
# measurementContext: DT40 Tdp1-/- hTDP1 cells, no CPT, ATP luminescence, 48 h
Hit rate of the full screen: of about 420,000 compounds, about 64,000 (15%) were called active. Inconclusive results (about 27%) are left out. The call rests on the fitted dose curve; in most records, active means well fitted inhibition curve with a large enough effect; inconclusive means small, poorly fitted or top-dose-only effect; inactive means flat fitted curve, though single readings scatter. A selection follows.
A correct response names exactly one class from True = active, False = inactive

// query For this molecule, state the assay outcome: CCc1nnc(NC(=O)C2CCCN2S(=O)(=O)c2ccccc2)s1 (stereo not drawn)
// result False

// query Please state the recorded outcome for this molecule: CCOc1ccc2nc(NCCNS(=O)(=O)c3ccccc3)c(C#N)cc2c1
// result False

// query Please share the test call associated with CC(C)NC(=O)c1ccc(Sc2ccccc2)c([N+](=O)[O-])c1 .
// result False

// query Hello, I am checking results. What call was entered for O=C(NC1CCCC1)c1ccc(Br)s1 ?
// result False

// query For this molecule, state the assay outcome: CC(=O)c1ccc(NC(=O)COc2ccccc2-c2nc(-c3ccccc3)no2)cc1
// result False

// query Please state the recorded outcome for this molecule: CC1=Nc2cc(C(=O)NCc3ccc(C)cc3)ccc2Sc2ccc(Cl)cc21
// result True

***
// query Hi, do you know how Cc1ccc(S(=O)(=O)NCCC(=O)NCc2ccc(Cl)cc2)cc1C came out in this test?
// result False

// query Hi, do you know how O=C1CSc2ccc(C(=O)NCc3ccccn3)cc2N1 came out in this test?
// result False

// query Look up the recorded call for CN(CC(=O)Nc1ccc(F)cc1)CC(=O)N1CCCCC1 in this test.
// result False

// query Which outcome did this test record for the molecule O=C(NCCCNC(=O)c1ccccc1Cl)c1cnccn1 ?
// result False

// query Hi team, can someone confirm the assay call for CCOc1ccc(OCC)c(NS(=O)(=O)c2ccc3[nH]c(=O)ccc3c2)c1 ?
// result False
